- System: PaTu-8988-T
- experiment.description: cells
- Set-up: ATPlite luminescence viability of PDAC cell lines, 11-dose single-agent curves, 4-parameter fit
- condition.context: Homo sapiens, PaTu 8988t, 72 h, read-out: EC50 [nM]
observation.type: EC50 (nM)
Enter your answer as a number in nM; do not include the unit.

Example entries and their recorded answers appear below.
{"smiles.string": "O=C(c1ccc(F)c(F)c1Nc1ccc(I)cc1F)N1CC(O)([C@@H]2CCCCN2)C1", "obs.value": 5570}
{"smiles.string": "Cc1nc(NC(=O)N2CCC[C@H]2C(N)=O)sc1-c1ccnc(C(C)(C)C(F)(F)F)c1", "obs.value": 3930}

Consider CO[C@]1(C(=O)N[C@@H](C)c2ccc(-n3cc(F)cn3)nc2)CC[C@H](c2nc(C)cc(Nc3cc(C)[nH]n3)n2)CC1 . Its measured EC50 is 6490
